tested on: NCI-H661; assay: relative viability (nuclei count vs DMSO), 5 days (fraction); higher = more cells survive; conditions: first compound 0.08 µM
property-name: relative viability
Output spec: single numeric token, no unit.

Data point: Oc1nc(-c2ccc(C(F)(F)F)cc2)nc2c1CSCC2 [XAV939] + Cc1cc(Nc2cc(N3CCN(C)CC3)nc(Sc3ccc(NC(=O)C4CC4)cc3)n2)n[nH]1 [Tozasertib] (partner 0.1 µM) ; relative viability = 0.364

Data point: Oc1nc(-c2ccc(C(F)(F)F)cc2)nc2c1CSCC2 [XAV939] + C[C@@H](Oc1cc(-c2cnn(C3CCNCC3)c2)cnc1N)c1c(Cl)ccc(F)c1Cl [Crizotinib] (partner 1 µM) ; relative viability = 0.922

Data point: C=C1C(=O)O[C@@H](CCCCCCCC)[C@@H]1C(=O)O [C-75] + Nc1ncn([C@H]2C[C@H](O)[C@@H](CO)O2)c(=O)n1 [Decitabine] (partner 2 µM) ; relative viability = 0.545

Data point: Oc1nc(-c2ccc(C(F)(F)F)cc2)nc2c1CSCC2 [XAV939] + CS(=O)(=O)CCNCc1ccc(-c2ccc3ncnc(Nc4ccc(OCc5cccc(F)c5)c(Cl)c4)c3c2)o1 [Lapatinib] (partner 2 µM) ; relative viability = 0.553

Data point: C=C1C(=O)O[C@@H](CCCCCCCC)[C@@H]1C(=O)O [C-75] + C[C@]1(O)C[C@@H](c2nc(-c3ccc4ccc(-c5ccccc5)nc4c3)c3c(N)nccn32)C1 [Linsitinib] (partner 1 µM) ; relative viability = 0.504

Data point: Oc1nc(-c2ccc(C(F)(F)F)cc2)nc2c1CSCC2 [XAV939] + COc1cc2c(Oc3ccc(NC(=O)C4(C(=O)Nc5ccc(F)cc5)CC4)cc3F)ccnc2cc1OCCCN1CCOCC1 [Foretinib] (partner 0.25 µM) ; relative viability = 1.01

Data point: C=C1C(=O)O[C@@H](CCCCCCCC)[C@@H]1C(=O)O [C-75] + CC(=O)Nc1cccc(-n2c(=O)n(C3CC3)c(=O)c3c(Nc4ccc(I)cc4F)n(C)c(=O)c(C)c32)c1 [Trametinib] (partner 0.02 µM) ; relative viability = 0.524

Data point: C=C1C(=O)O[C@@H](CCCCCCCC)[C@@H]1C(=O)O [C-75] + CS(=O)(=O)CCNCc1ccc(-c2ccc3ncnc(Nc4ccc(OCc5cccc(F)c5)c(Cl)c4)c3c2)o1 [Lapatinib] (partner 2 µM) ; relative viability = 0.51

Data point: C=C1C(=O)O[C@@H](CCCCCCCC)[C@@H]1C(=O)O [C-75] + Cc1nc(Nc2ncc(C(=O)Nc3c(C)cccc3Cl)s2)cc(N2CCN(CCO)CC2)n1 [Dasatinib] (partner 0.075 µM) ; relative viability = 0.839

Data point: Oc1nc(-c2ccc(C(F)(F)F)cc2)nc2c1CSCC2 [XAV939] + Cc1nc(NC(=O)N2CCC[C@H]2C(N)=O)sc1-c1ccnc(C(C)(C)C(F)(F)F)c1 [Alpelisib] (partner 2 µM) ; relative viability = 0.655
